Measured Target: T1, Lsb1, P53281
T1 sequence (P53281 45-122, looked up): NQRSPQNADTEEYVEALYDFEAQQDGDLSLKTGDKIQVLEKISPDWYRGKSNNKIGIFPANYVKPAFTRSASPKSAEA
Protocol Details: SPOT array
Condition Details: median of control spots 388
Metric Name: SPOT intensity

Check out these entries, answers already filled in.
SSAAPPPPPRRATPE = 266
IRMPSNPALPKKLLN = 47
EAEEAAPQLPSRSSA = 62
LEFRAILFIPKRAPF = 35
NNNKMRPHLPPLSSG = 81
PSTMDFPKLPSFQNS = 44
RHLKLVPSTPMDIPW = 14
VNFRRIPTGPDSPPT = 0
MAMRPIPPLPTESEY = 174
RAPPPVPKKPSSRIA = 1600

# per-item lookup of SPOT intensity; items listed below
1. TEVPIPRRPPPPQAA
2. NMLKKKPLKKPLKRF
3. PPIPNAPLSPAPAVP
4. PIVPSSPAPPLPLSG
5. SLSRRRFSLPSMPNV
6. IKTRSVPKIPSIESV

Data returned:
1: 0; 2: 0; 3: 0; 4: 0; 5: 1050; 6: 266

# per-item lookup of SPOT intensity; items listed below
1. LSKRLPLRFPEHTSS
2. RVTRKRPREPKSTND
3. RMVRRRPLRVQFSAR

Data returned:
1: 1; 2: 9; 3: 60
